# merged literature set: IC50 with cGMP-inhibited 3',5'-cyclic phosphodiesterase 3A (Homo sapiens)
# Sequence (Q14432 whole entry): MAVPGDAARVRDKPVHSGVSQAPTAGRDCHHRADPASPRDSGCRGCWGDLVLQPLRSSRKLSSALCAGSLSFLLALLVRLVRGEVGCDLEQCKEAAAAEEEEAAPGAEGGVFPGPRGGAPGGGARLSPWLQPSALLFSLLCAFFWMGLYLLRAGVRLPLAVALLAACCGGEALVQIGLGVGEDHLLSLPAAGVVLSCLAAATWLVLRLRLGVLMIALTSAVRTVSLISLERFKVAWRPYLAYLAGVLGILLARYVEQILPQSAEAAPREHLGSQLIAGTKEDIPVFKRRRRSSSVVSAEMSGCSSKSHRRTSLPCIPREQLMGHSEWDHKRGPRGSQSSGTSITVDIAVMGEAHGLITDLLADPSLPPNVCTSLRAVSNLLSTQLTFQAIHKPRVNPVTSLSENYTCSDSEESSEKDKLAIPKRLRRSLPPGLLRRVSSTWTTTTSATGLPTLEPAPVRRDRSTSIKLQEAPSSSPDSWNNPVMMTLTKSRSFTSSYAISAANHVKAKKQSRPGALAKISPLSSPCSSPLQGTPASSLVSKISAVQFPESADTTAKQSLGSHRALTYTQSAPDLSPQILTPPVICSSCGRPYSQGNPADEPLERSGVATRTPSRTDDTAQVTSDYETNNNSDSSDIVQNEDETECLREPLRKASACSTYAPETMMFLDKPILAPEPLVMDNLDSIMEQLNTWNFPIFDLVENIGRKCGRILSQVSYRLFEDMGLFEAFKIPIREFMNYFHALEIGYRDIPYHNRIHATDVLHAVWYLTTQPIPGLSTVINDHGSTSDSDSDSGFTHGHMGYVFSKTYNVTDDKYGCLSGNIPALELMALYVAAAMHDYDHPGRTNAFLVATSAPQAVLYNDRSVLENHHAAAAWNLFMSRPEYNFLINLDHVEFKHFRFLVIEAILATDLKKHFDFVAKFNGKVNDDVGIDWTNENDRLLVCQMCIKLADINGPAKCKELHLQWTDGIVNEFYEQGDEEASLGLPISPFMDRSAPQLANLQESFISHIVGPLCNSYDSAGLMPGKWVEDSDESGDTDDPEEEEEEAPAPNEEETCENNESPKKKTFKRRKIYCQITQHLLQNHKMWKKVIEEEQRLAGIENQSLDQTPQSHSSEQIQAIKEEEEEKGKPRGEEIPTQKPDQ
IC50 strictly less than 6 µM = 1. Otherwise -1.

INSERT INTO assay_data (molecule, category) VALUES
  ('Cn1nc(-c2ccc(Cl)cc2)s/c1=N\c1cccc(C(N)=O)c1', 1),
  ('CCc1ccc2c(C3=NNC(=O)C3(C)C)ccc(OC)c2n1', -1),
  ('CCc1cc(NC2=C(Cc3ccccc3)C(=O)CCC2)ccc1C1=NNC(=O)CC1C (stereo not given)', 1),
  ('COc1ccc(C(=O)N2CCN(c3ccc4c(c3)CCC(=O)N4)CC2)cc1OC', -1),
  ('CC(O)C1CCN(c2nccnc2Oc2ccc(Nc3nc4ccccc4s3)cc2)CC1 (stereo not given)', -1),
  ('NCCOc1ccc(Cl)c2c1C1(CCCCC1)NC(=O)N2', -1),
  ('O=c1nc(N2CCOCC2)oc2c(-c3cc4ccccc4s3)c(OCc3ccccn3)ccc12', 1),
  ('Cc1cc(C2=NNC(=O)CC2C)ccc1/N=C1\CCCC(O)=C1Cc1ccccc1 (stereo not given)', 1),
  ('CC(C)c1n[nH]c2c(=O)[nH]c(C[C@@H]3CCCC[C@H]3Nc3ncccn3)nc12', -1);
